Tested target: Env of HIV-1 strain 3016.v5.c45 (HIV-1)
Assay procedure: cell-based or functional assay
Quantity: neutralization IC50 (µg/mL)

[[record]]
binder = "γ52κ18 (antibody, V domains shown) VH: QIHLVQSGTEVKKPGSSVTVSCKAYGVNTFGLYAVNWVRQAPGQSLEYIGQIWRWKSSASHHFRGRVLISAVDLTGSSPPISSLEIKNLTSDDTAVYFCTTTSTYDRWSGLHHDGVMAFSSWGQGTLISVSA VL: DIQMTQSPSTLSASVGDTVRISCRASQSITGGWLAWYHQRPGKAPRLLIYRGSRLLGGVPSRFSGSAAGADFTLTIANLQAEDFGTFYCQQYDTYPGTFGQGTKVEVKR"
cmp = "="
val = 0.129

[[record]]
binder = "γ20κ18 (antibody, V domains shown) VH: QIHLVQSGTEVKKPGSSVAVSCKAYGVNTFGLYAVNWVRQAPGQSLEYIGQIWRWKSSASHDFRGRVIISAVDLTGSSPPISSLEIKNLTSDDTAVYFCTATSTPDYWSGLHHDGVMAFSSWGQGTLISVSA VL: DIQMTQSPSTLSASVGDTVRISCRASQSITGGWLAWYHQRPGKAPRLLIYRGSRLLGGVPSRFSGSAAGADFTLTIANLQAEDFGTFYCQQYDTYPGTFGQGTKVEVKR"
cmp = ">"
val = 15

[[record]]
binder = "γ52κ61 (antibody, V domains shown) VH: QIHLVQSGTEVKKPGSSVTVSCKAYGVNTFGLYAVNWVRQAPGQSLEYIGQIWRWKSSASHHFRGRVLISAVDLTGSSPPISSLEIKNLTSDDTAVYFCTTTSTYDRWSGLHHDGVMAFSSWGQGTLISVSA VL: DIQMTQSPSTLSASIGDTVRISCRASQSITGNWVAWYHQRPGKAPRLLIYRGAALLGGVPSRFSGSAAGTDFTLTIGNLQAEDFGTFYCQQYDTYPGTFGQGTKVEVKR"
cmp = "="
val = 0.182

